Every entry's value here was drawn from ChEMBL document CHEMBL1201862.

GI50 values by entry
Tested on: RXF 393
Assay: NCI tumour cell line growth inhibition, 48 h
Calls of active or inactive are those of the source. No stated cut-off is given here; in the data, active = GI50 up to about 1.1 µM and inactive = higher.

{"molecule": "CC(C)Oc1cccc(N2C(NCCc3c[nH]c4ccccc34)=Nc3ccncc3S2(=O)=O)c1", "tested on": "RXF 393", "GI50": "3.46 µM (inactive)"}
{"molecule": "Cc1cccc(NC(=O)c2cc3cc(/N=N/c4ccccc4Cl)ccc3oc2=O)c1", "tested on": "RXF 393", "GI50": "33.1 µM (inactive)"}
{"molecule": "CCOC(=O)C1=C(Nc2ccc(Br)cc2)OCC1=O", "tested on": "RXF 393", "GI50": "> 100 µM (inactive)"}
{"molecule": "CCOP(=O)(C/C(O)=C1\\C(=O)C(CCCNC(=O)OC(C)(C)C)N(Cc2ccc(OC)c(OC)c2)C1=O)OCC (configuration not stated)", "tested on": "RXF 393", "GI50": "> 100 µM (inactive)"}
{"molecule": "N#Cc1ccc(-c2nc(C#N)c(N)o2)cc1", "tested on": "RXF 393", "GI50": "> 10 µM (inactive)"}

For the molecule shown here, Cc1ccc(NC(=O)C(=O)C2C(=O)C3=C(CC2(C)C)NC2C=CC=CC2S3)c(C)c1 (configuration not stated) , give the reported GI50. > 100 µM (inactive)

For the molecule shown here, CC1(C)OC2OC(COC(=O)c3ccc(C#N)cc3)C3OC(C)(C)OC3C2O1 (configuration not stated) , give the reported GI50. > 75 µM (inactive)

###

Tested on: CAKI-1
Assay: NCI tumour cell line growth inhibition, 48 h
Activity calls are given as the source filed them. Rule as the data show it: active = GI50 up to about 1.1 µM and inactive = higher.
GI50 values by entry

# count of solved cases: 3
{"molecule": "Cc1cccc(C)c1NC(=O)C(=O)C(C#N)c1ccccc1 (stereo not given)", "GI50": "> 100 µM (inactive)"}
{"molecule": "CN1C(=O)c2ccccc2C(O)(c2ccccc2)C1(O)c1ccccc1 (stereo not given)", "GI50": "43.4 µM (inactive)"}
{"molecule": "C[C@H]1CN[C@@H]2[C@@H](C)[C@H]3[C@@H](C[C@H]4[C@@H]5CC[C@H]6C[C@@H](N)CC[C@]6(C)[C@H]5CC[C@]34C)O[C@@]2(O)C1", "GI50": "2.37 µM (inactive)"}

For the molecule shown here, Brc1ccc2ns[s+]c2c1 , give the reported GI50. 2.49 µM (inactive)

For the molecule shown here, OC(c1cc2ccccc2o1)c1cc2ccccc2s1 (stereo not given) , give the reported GI50. > 10 µM (inactive)

###

GI50 values by entry
System: MOLT-4
Experiment: NCI tumour cell line growth inhibition, 48 h
Active and inactive are the calls of the source. No stated cut-off is given here; in the data, active = GI50 up to about 1.1 µM and inactive = higher.

# count of solved cases: 10
{"compound": "O=C1/C(=C/c2ccco2)N=C(c2ccccc2)N1c1ccc(S(=O)(=O)Nc2nccs2)cc1", "GI50": "43.4 µM (inactive)"}
{"compound": "CCSc1[nH]c(/N=C(/NC(=O)c2ccccc2)NC(C)C)c(C(N)=O)c1C(N)=O", "GI50": "> 10 µM (inactive)"}
{"compound": "CC(=O)C1=C(C)N2C(=NC3=C(CCc4ccccc43)C2c2ccc(Cl)cc2)S1 (configuration not stated)", "GI50": "3.8 µM (inactive)"}
{"compound": "CCCCCCCCCCCCOP(N)(=O)OCCCCCCCCCCCC", "GI50": "> 100 µM (inactive)"}
{"compound": "CCNC1=C(NC(=O)CC)C(=O)c2ccccc2C1=O", "GI50": "> 100 µM (inactive)"}
{"compound": "Brc1ccc2ns[s+]c2c1", "GI50": "4.65 µM (inactive)"}
{"compound": "CN(C)c1ccc(/C=C/c2cc[n+](C)c3ccccc23)cc1", "GI50": "3.4 µM (inactive)"}
{"compound": "CCOc1ccc(C(CN2CCOCC2)C(C)=O)cc1OC (configuration not stated)", "GI50": "21.9 µM (inactive)"}
{"compound": "COc1ccc(OC)c(NC(=O)CCC/C(CC(=O)c2ccc(O)c(OC)c2)=N\\Nc2ccc([N+](=O)[O-])cc2)c1", "GI50": "> 100 µM (inactive)"}
{"compound": "CN(c1ccc(Cl)cc1)S(=O)(=O)c1ccccc1", "GI50": "28 µM (inactive)"}

For the compound shown here, O=C1NC(c2ccc(O)cc2)C2CCC1C2 (configuration not stated) , give the reported GI50. > 100 µM (inactive)

For the compound shown here, Brc1ccc(/N=N/N2CCCC2)cc1 , give the reported GI50. 28.6 µM (inactive)

###

GI50 values by entry
Test system: SF-539
Test: NCI tumour cell line growth inhibition, 48 h
The source made the active and inactive calls. No stated cut-off is given here; in the data, active = GI50 up to about 1.1 µM and inactive = higher.

{"compound": "COC(=O)/C(=N/NC(C)(C)C)C(C(=O)C=C(C)C)C(=O)C(=O)Nc1ccc(Cl)cc1C (stereo not given)", "GI50": "> 100 µM (inactive)"}
{"compound": "O=C(C(=O)N1CC2C=CC1CC2)c1c[nH]c2ccccc12 (stereo not given)", "GI50": "> 100 µM (inactive)"}
{"compound": "O=Cc1ccc2c(c1)CC1(C2)Cc2ccc3c(c2C1)CCC3 (stereo not given)", "GI50": "9.02 µM (inactive)"}
{"compound": "CC(=O)Nc1cc2cc(NS(=O)(=O)c3cc(C(F)(F)F)cc(C(F)(F)F)c3)ccc2oc1=O", "GI50": "29.4 µM (inactive)"}
{"compound": "O=c1c2cc(Br)ccc2oc2ccc(Br)cc12", "GI50": "> 100 µM (inactive)"}

For the compound shown here, COC(=O)C1=C(O)C(C(=O)OC)[C@@]2(O)[C@@H](C(=O)OC)C(c3ccc(OC(=O)/C=C/c4ccccc4)cc3)C[C@@H]1[C@@H]2C(=O)OC (stereo not given in full) , give the reported GI50. 3.43 µM (inactive)

For the compound shown here, Cc1cccc2c1c(=O)c1c(O)cc3c(c1n2C)C=CC(C)(C)O3 , give the reported GI50. > 100 µM (inactive)

For the compound shown here, Oc1cc(-c2ccco2)nc2cc3c(cc12)OCO3 , give the reported GI50. 25.7 µM (inactive)

For the compound shown here, c1ccc(NN(Cc2cnccn2)c2ccccc2)cc1 , give the reported GI50. > 100 µM (inactive)

For the compound shown here, CC(C)(C)c1cc(-c2cc(C(C)(C)C)n(-c3ccccc3)n2)nn1-c1ccccc1 , give the reported GI50. > 100 µM (inactive)

For the compound shown here, CC(=O)N(C(=O)CC(=O)N/N=C\c1ccc(Br)c(N(CCC#N)CCC#N)c1)c1ccc(Cl)cc1 , give the reported GI50. 71.4 µM (inactive)

For the compound shown here, CC(C)(CCCCC(C)(C)NCC1COc2ccccc2O1)NCC1COc2ccccc2O1 (stereo not given) , give the reported GI50. 1.85 µM (inactive)

For the compound shown here, CCC(=O)C(C)C(=O)C(=O)C(=O)OC (stereo not given) , give the reported GI50. > 100 µM (inactive)

For the compound shown here, CC1OC(n2cnc3c(N)nc(Cl)nc32)C(C)(O)C1O (stereo not given) , give the reported GI50. > 25 µM (inactive)

For the compound shown here, CN(CCCNC(=O)c1nn(-c2ccccc2)c2c1Cc1ccccc1-2)CCCNC(=O)c1nn(-c2ccccc2)c2c1Cc1ccccc1-2 , give the reported GI50. 1.59 µM (inactive)

For the compound shown here, CC(C)Sc1nc(C#N)cc2c1CCCC2 , give the reported GI50. 42.5 µM (inactive)

For the compound shown here, Cc1noc(NC(=O)Nc2ccccc2F)c1C#N , give the reported GI50. > 100 µM (inactive)

For the compound shown here, NC1=NN(c2ccccc2)C(=O)C1C(=O)C(=O)Nc1nccs1 (stereo not given) , give the reported GI50. > 100 µM (inactive)

For the compound shown here, COC(=O)c1cc2c(cc1CC1Cc3cc4c(cc3C1=O)CCC4)CCC2 (stereo not given) , give the reported GI50. 58.9 µM (inactive)

For the compound shown here, CC1(C)OC2C(=O)OC(COCc3ccccc3)C2O1 (stereo not given) , give the reported GI50. > 100 µM (inactive)

For the compound shown here, CN(CCO)CCCC1COc2ccccc2O1 (stereo not given) , give the reported GI50. > 100 µM (inactive)

For the compound shown here, Cc1cc(C)n(-c2c(O)ccc(O)c2-n2nc(C)cc2C)n1 , give the reported GI50. > 100 µM (inactive)

For the compound shown here, CC(=O)OC[C@@H]1[C@H]2CC[C@]3(C)[C@@H](OC(C)=O)CC[C@H]3[C@@H]2CC[C@H]1C1(C)SCCS1 , give the reported GI50. > 25 µM (inactive)

For the compound shown here, COC(=O)C(=O)C(C(C)=O)C(=O)NCc1ccc(OC)c(OC)c1 (stereo not given) , give the reported GI50. > 100 µM (inactive)

For the compound shown here, COc1ccccc1NC(=S)Nc1cc(C)cc(C)n1 , give the reported GI50. > 100 µM (inactive)
